protocol: protein stability index of a GFP-peptide fusion (GPS, HEK-293T) (PSI 1-6); higher = more stable;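 also: 24-mer peptide tiles fused after GFP, lentivirally expressed, FACS-sorted into six equal bins by GFP/DsRed ratio, decoded by Illumina sequencing, PSI is the read-weighted mean bin number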
conditionDescription: treatment: DMSO; c terminus: a fixed tail appended
Tick Y if protein stability index is 4 or greater. Tick N if protein stability index is less than 4.

Reference set, count: 8
| sequenceEntry | discreteLabel |
| --- | --- |
| EDVLLLNFEEMRALLDSLPPPVES [KLHL14] | N |
| PQGISPVSQHWATWALYNLVSVYP [ZER1] | N |
| GTADGRVVKLENGEIETIARFGSG [APMAP] | Y |
| GSRVLHVVQTLYPFSSVTEEELNF [NCK2] | N |
| GQGPKPEADSQEQGHPQTGCECED [GAGE1] | Y |
| QQLYRHGKAYRFLFGFSAVSIMYL [JAGN1] | N |
| QTASRSLVLSEDRKSVRYTRQKKN [TRIM15] | Y |
| VRAAQLCSQHWGGMASFRFPETTF [TBX6] | N |

Task: # check: protein stability index of ERRGGLPPLPLHPGGDQGGPPVGP [WAS] is greater than or equal to 4
Result: Y

Task: # repeat for ALILHQRIHSGEKPYGCVECGKAF [ZNF24]
Result: N

Task: Continue with GGGGCDRYEPLPPSLPAAGEQDCC [KCNA3]
Result: Y

Task: Entry NAIPGRTDIELEIYGMEGIPEKDM [ZNF207] please
Result: Y

----------
protocol: protein stability index of a GFP-peptide fusion (GPS, HEK-293T) (PSI 1-6); higher = more stable
conditionDescription: treatment: DMSO; c terminus: a fixed tail appended
Listed next: entries and their corresponding protein stability index.
Response field accepts a number only; no unit should be typed.

| sequenceEntry | quantityName | measuredValue |
| --- | --- | --- |
| FDSDWYTSRNLIGGADIIVIKYNV [RHOBTB3] | protein stability index | 2.73 |
| YSFVLTNRGNSAGGLQHRVTAKTA [PTPRD] | protein stability index | 2.81 |

Read the next record carefully.
Task: Quick one: protein stability index for YLNFIRGVVDSEDLPLNISREMLQ [HSP90AB1] ?
Result: 2.69

----------
protocol: protein stability index of a GFP-peptide fusion (GPS, HEK-293T) (PSI 1-6); higher = more stable
conditionDescription: treatment: DMSO; c terminus: a fixed tail appended
Reported protein stability index values follow for various sequences
# output: bare number, no unit

| sequenceEntry | protein stability index |
| --- | --- |
| RGAQGVILVYDIANRWSFEGMDRW [RAB40A] | 2.57 |

Task: # lookup: protein stability index of DEALERCQILELLNAELEEKMMQE [CCDC89]
Result: 5.17

Task: Query SQFLKLKTSVEKANAQIQILTRSW [CD207] next
Result: 2.19

Task: Request: AMVLELLGPSLEDLFDLCDRTFTL [CSNK1G1]
Result: 2.52

----------
protocol: protein stability index of a GFP-peptide fusion (GPS, HEK-293T) (PSI 1-6); higher = more stable
conditionDescription: treatment: DMSO; c terminus: a fixed tail appended
Measured protein stability index values are reported for all entries that follow.
Write the value as a bare number.

Past entries and their recorded results:
| sequenceEntry | protein stability index |
| --- | --- |
| SKAQELGGAGREDPGLWSRLCRLA [ZSWIM9] | 2.96 |
| LKKSRGKFIKPWESPDEMELDELL [PTPRD] | 3.52 |
| AVYFAEAEEAESHFSSIPDAFWWA [KCNA1] | 2.27 |
| AELEQHLEQEQEFQVNKLMKKIKK [CCDC6] | 4.61 |

Task: Fill blank: measured protein stability index of the sequence RGIIMTFGSGSNGCLGHGSLTDIS [NEK8] is ____.
Result: 2.45

Task: Same again, this time with NNPFAKGFRGSDDMELHRMSRMQS [TBX5]
Result: 4.15

Task: Another sequence: LNVTNYCHLAHELRLSCMERKKVQ [DCAF4]
Result: 2.61

Task: Can you check EDENDLEELNNGEPQTEHQQESES [MIA2] next?
Result: 5.57

Task: Query PQQTWASPAEVVDLTLDEDSRRKY [C18orf25] next
Result: 5.1
